This collection of values is drawn from the supplement of paper PMC10307832.

Test system: SW 900
Test: relative viability (nuclei count vs DMSO), 5 days (fraction); higher = more cells survive
Details: first compound 0.01581 µM
MEASURE NAME: relative viability

INSERT INTO results (compound, target_desc, result) VALUES
  ('Nc1ccn([C@@H]2O[C@H](CO)[C@@H](O)[C@@H]2O)c(=O)n1 [Cytarabine] + Nc1nc2[nH]cc(CCc3ccc(C(=O)N[C@@H](CCC(=O)O)C(=O)O)cc3)c2c(=O)[nH]1 [Pemetrexed] (partner 0.2 µM)', 'SW 900', 0.499),
  ('COc1cc2nccc(Oc3ccc(NC(=O)Nc4cc(C)on4)c(Cl)c3)c2cc1OC [Tivozanib] + O=C(CCCCCCC(=O)Nc1ccccc1)NO [Vorinostat] (partner 1 µM)', 'SW 900', 0.481),
  ('Nc1ccn([C@@H]2O[C@H](CO)[C@@H](O)[C@@H]2O)c(=O)n1 [Cytarabine] + COc1cc2c(Oc3ccc(NC(=O)C4(C(=O)Nc5ccc(F)cc5)CC4)cc3F)ccnc2cc1OCCCN1CCOCC1 [Foretinib] (partner 0.25 µM)', 'SW 900', 0.569),
  ('Nc1ccn([C@@H]2O[C@H](CO)[C@@H](O)[C@@H]2O)c(=O)n1 [Cytarabine] + NC(=O)Nc1cc(-c2cccc(F)c2)sc1C(=O)N[C@H]1CCCNC1 [AZD7762] (partner 0.2 µM)', 'SW 900', 0.546),
  ('Nc1ccn([C@@H]2O[C@H](CO)[C@@H](O)[C@@H]2O)c(=O)n1 [Cytarabine] + Nc1ncn([C@H]2C[C@H](O)[C@@H](CO)O2)c(=O)n1 [Decitabine] (partner 2 µM)', 'SW 900', 0.344);

From here, focus on the item given below.
Data point: Nc1ccn([C@@H]2O[C@H](CO)[C@@H](O)[C@@H]2O)c(=O)n1 [Cytarabine] + Cc1nc(Nc2ncc(C(=O)Nc3c(C)cccc3Cl)s2)cc(N2CCN(CCO)CC2)n1 [Dasatinib] (partner 0.075 µM) ; relative viability = 0.446

###

System: LCLC-103H
Assay: relative viability (nuclei count vs DMSO), 5 days (fraction); higher = more cells survive
Details: first compound 0.005 µM
For each record, write down the corresponding relative viability.
One number for each entry.

INSERT INTO results (compound, numeric_readout) VALUES
  ('COc1cc2nccc(Oc3ccc(NC(=O)Nc4cc(C)on4)c(Cl)c3)c2cc1OC [Tivozanib] + CC(=O)c1c(C)c2cnc(Nc3ccc(N4CCNCC4)cn3)nc2n(C2CCCC2)c1=O [Palbociclib] (partner 0.5 µM)', 0.452),
  ('COc1cc2nccc(Oc3ccc(NC(=O)Nc4cc(C)on4)c(Cl)c3)c2cc1OC [Tivozanib] + CC(=O)Nc1cccc(-n2c(=O)n(C3CC3)c(=O)c3c(Nc4ccc(I)cc4F)n(C)c(=O)c(C)c32)c1 [Trametinib] (partner 0.02 µM)', 0.673);

With those in mind, consider the next compound.
Looking up COc1cc2nccc(Oc3ccc(NC(=O)Nc4cc(C)on4)c(Cl)c3)c2cc1OC [Tivozanib] + Cc1cc(Nc2cc(N3CCN(C)CC3)nc(Sc3ccc(NC(=O)C4CC4)cc3)n2)n[nH]1 [Tozasertib] (partner 0.1 µM) , I found its relative viability recorded as 0.525

###

Tested on: NCI-H1648
Assay: relative viability (nuclei count vs DMSO), 5 days (fraction); higher = more cells survive
Conditions: first compound 0.08 µM
MEASURE NAME: relative viability
Answers are plain numbers.

Use these answered entries as a reference point.
INSERT INTO assay_data (compound, measure_name, numeric_readout) VALUES
  ('Cc1cnc(-c2cnc(NCCNc3ccc(C#N)cn3)nc2-c2ccc(Cl)cc2Cl)[nH]1 + CC(=O)c1c(C)c2cnc(Nc3ccc(N4CCNCC4)cn3)nc2n(C2CCCC2)c1=O [Palbociclib] (partner 0.5 µM)', 'relative viability', 0.267),
  ('O=c1[nH]c2ccccc2n1C1CCN(CCCC(c2ccc(F)cc2)c2ccc(F)cc2)CC1 [Pimozide] + Cc1cc(Nc2cc(N3CCN(C)CC3)nc(Sc3ccc(NC(=O)C4CC4)cc3)n2)n[nH]1 [Tozasertib] (partner 0.1 µM)', 'relative viability', 0.574),
  ('O=c1[nH]c2ccccc2n1C1CCN(CCCC(c2ccc(F)cc2)c2ccc(F)cc2)CC1 [Pimozide] + COc1cccc2cc(-c3nc([C@H]4CC[C@H](C(=O)O)CC4)n4ncnc(N)c34)[nH]c12 [OSI-027] (partner 0.5 µM)', 'relative viability', 0.275),
  ('Cc1cnc(-c2cnc(NCCNc3ccc(C#N)cn3)nc2-c2ccc(Cl)cc2Cl)[nH]1 + O=C(c1cc(Cc2n[nH]c(=O)c3ccccc23)ccc1F)N1CCN(C(=O)C2CC2)CC1 [Olaparib] (partner 8 µM)', 'relative viability', 0.723),
  ('Cc1cnc(-c2cnc(NCCNc3ccc(C#N)cn3)nc2-c2ccc(Cl)cc2Cl)[nH]1 + CC(=O)Nc1cccc(-n2c(=O)n(C3CC3)c(=O)c3c(Nc4ccc(I)cc4F)n(C)c(=O)c(C)c32)c1 [Trametinib] (partner 0.02 µM)', 'relative viability', 0.5);

Lab note: Cc1cnc(-c2cnc(NCCNc3ccc(C#N)cn3)nc2-c2ccc(Cl)cc2Cl)[nH]1 + O=C(CCCCCCC(=O)Nc1ccccc1)NO [Vorinostat] (partner 1 µM) gave relative viability of 0.718

###

Could you please report measured relative viability for the items listed next?
System: NCI-H358
Assay: relative viability (nuclei count vs DMSO), 5 days (fraction); higher = more cells survive
Conditions: first compound 0.08 µM
Give bare numbers.

Observe how each entry below is paired with its result.
INSERT INTO measurements (compound, numeric_readout) VALUES
  ('Cc1cnc(-c2cnc(NCCNc3ccc(C#N)cn3)nc2-c2ccc(Cl)cc2Cl)[nH]1 + CCNC(=O)c1noc(-c2cc(C(C)C)c(O)cc2O)c1-c1ccc(CN2CCOCC2)cc1 [Luminespib] (partner 0.01 µM)', 0.24),
  ('O=c1[nH]c2ccccc2n1C1CCN(CCCC(c2ccc(F)cc2)c2ccc(F)cc2)CC1 [Pimozide] + Nc1ncn([C@H]2C[C@H](O)[C@@H](CO)O2)c(=O)n1 [Decitabine] (partner 2 µM)', 0.196),
  ('Cc1cnc(-c2cnc(NCCNc3ccc(C#N)cn3)nc2-c2ccc(Cl)cc2Cl)[nH]1 + CS(=O)(=O)CCNCc1ccc(-c2ccc3ncnc(Nc4ccc(OCc5cccc(F)c5)c(Cl)c4)c3c2)o1 [Lapatinib] (partner 2 µM)', 0.43),
  ('Cc1cnc(-c2cnc(NCCNc3ccc(C#N)cn3)nc2-c2ccc(Cl)cc2Cl)[nH]1 + N=C(N)NC(=N)NCCc1ccccc1 [Phenformin] (partner 250 µM)', 0.34);

Would you kindly look at the next entry?
Memo: O=c1[nH]c2ccccc2n1C1CCN(CCCC(c2ccc(F)cc2)c2ccc(F)cc2)CC1 [Pimozide] + COc1cc2c(Oc3ccc(NC(=O)C4(C(=O)Nc5ccc(F)cc5)CC4)cc3F)ccnc2cc1OCCCN1CCOCC1 [Foretinib] (partner 0.25 µM) , reported relative viability: 0.671

###

System: NCI-H23
Experiment: relative viability (nuclei count vs DMSO), 5 days (fraction); higher = more cells survive
Conditions: first compound 0.5 µM
MEASURE NAME: relative viability
One number for each entry.

Solved cases below.
INSERT INTO results (compound, target_desc, numeric_readout) VALUES
  ('COc1cc2nccc(Oc3ccc(NC(=O)Nc4cc(C)on4)c(Cl)c3)c2cc1OC [Tivozanib] + Cc1cc(Nc2cc(N3CCN(C)CC3)nc(Sc3ccc(NC(=O)C4CC4)cc3)n2)n[nH]1 [Tozasertib] (partner 0.1 µM)', 'NCI-H23', 0.427),
  ('COc1cc2nccc(Oc3ccc(NC(=O)Nc4cc(C)on4)c(Cl)c3)c2cc1OC [Tivozanib] + O=C(c1cc(Cc2n[nH]c(=O)c3ccccc23)ccc1F)N1CCN(C(=O)C2CC2)CC1 [Olaparib] (partner 8 µM)', 'NCI-H23', 0.253),
  ('Nc1ccn([C@@H]2O[C@H](CO)[C@@H](O)[C@@H]2O)c(=O)n1 [Cytarabine] + CC(=O)c1c(C)c2cnc(Nc3ccc(N4CCNCC4)cn3)nc2n(C2CCCC2)c1=O [Palbociclib] (partner 0.5 µM)', 'NCI-H23', 0.169),
  ('Nc1ccn([C@@H]2O[C@H](CO)[C@@H](O)[C@@H]2O)c(=O)n1 [Cytarabine] + Nc1nc2[nH]cc(CCc3ccc(C(=O)N[C@@H](CCC(=O)O)C(=O)O)cc3)c2c(=O)[nH]1 [Pemetrexed] (partner 0.2 µM)', 'NCI-H23', 0.159),
  ('COc1cc2nccc(Oc3ccc(NC(=O)Nc4cc(C)on4)c(Cl)c3)c2cc1OC [Tivozanib] + NC(=O)Nc1cc(-c2cccc(F)c2)sc1C(=O)N[C@H]1CCCNC1 [AZD7762] (partner 0.2 µM)', 'NCI-H23', 0.176),
  ('COc1cc2nccc(Oc3ccc(NC(=O)Nc4cc(C)on4)c(Cl)c3)c2cc1OC [Tivozanib] + Cc1nc(Nc2ncc(C(=O)Nc3c(C)cccc3Cl)s2)cc(N2CCN(CCO)CC2)n1 [Dasatinib] (partner 0.075 µM)', 'NCI-H23', 0.753);

For every item below, please supply its relative viability.
1. Nc1ccn([C@@H]2O[C@H](CO)[C@@H](O)[C@@H]2O)c(=O)n1 [Cytarabine] + C[C@]1(O)C[C@@H](c2nc(-c3ccc4ccc(-c5ccccc5)nc4c3)c3c(N)nccn32)C1 [Linsitinib] (partner 1 µM)
2. Nc1ccn([C@@H]2O[C@H](CO)[C@@H](O)[C@@H]2O)c(=O)n1 [Cytarabine] + CCNC(=O)c1noc(-c2cc(C(C)C)c(O)cc2O)c1-c1ccc(CN2CCOCC2)cc1 [Luminespib] (partner 0.01 µM)
3. COc1cc2nccc(Oc3ccc(NC(=O)Nc4cc(C)on4)c(Cl)c3)c2cc1OC [Tivozanib] + CC(C)C[C@H](NC(=O)[C@H](Cc1ccccc1)NC(=O)c1cnccn1)B(O)O [Bortezomib] (partner 0.002 µM)
4. Nc1ccn([C@@H]2O[C@H](CO)[C@@H](O)[C@@H]2O)c(=O)n1 [Cytarabine] + CC1(C)CCC(c2ccc(Cl)cc2)=C(CN2CCN(c3ccc(C(=O)NS(=O)(=O)c4ccc(N[C@H](CCN5CCOCC5)CSc5ccccc5)c(S(=O)(=O)C(F)(F)F)c4)cc3)CC2)C1 [Navitoclax] (partner 0.5 µM)
5. COc1cc2nccc(Oc3ccc(NC(=O)Nc4cc(C)on4)c(Cl)c3)c2cc1OC [Tivozanib] + C[C@]1(O)C[C@@H](c2nc(-c3ccc4ccc(-c5ccccc5)nc4c3)c3c(N)nccn32)C1 [Linsitinib] (partner 1 µM)

[A]
[0.14, 0.188, 0.839, 0.173, 0.534]
